experiment: qHTS RealTime-Glo MT Cell Viability Assay in HepG2 cells - 24 hour (AID 1224867); details: RealTime-Glo luminescence; series mostly up to 76.8 µM; also: nearly all actives have a fitted effect of over 50% in size
Records with an inconclusive call do not appear. The source made the active and inactive calls. Calls follow the shape of the dose curve; as a rule, active = well fitted cell-killing curve with a large enough effect in the repeat runs; inconclusive = weak or mixed curves; inactive = flat fitted curve, though single readings scatter.
Value Type: outcome

C=Cc1ccc(O)c(OC)c1 : inactive
CCc1cccc(CC)c1 : inactive
CC/C=C(\C)C=O : inactive
C=C1CC[C@H]2O[C@]2(C)CC[C@@H]2[C@@H]1CC2(C)C : inactive
CC(C)(c1ccc(Oc2ccc(N)cc2)cc1)c1ccc(Oc2ccc(N)cc2)cc1 : inactive
CCN(CCC#N)c1ccc(N=Nc2ccc([N+](=O)[O-])cc2)cc1 : inactive
